B1: BTBD1 (parent)
chain: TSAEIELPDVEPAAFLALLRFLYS

variants of: B1; assay: protein stability index of a GFP-peptide fusion (GPS, HEK-293T) (PSI 1-6); higher = more stable; conditions: c terminus: a fixed tail appended;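 also: lentivirally expressed fusions sorted by FACS into six bins by GFP to DsRed ratio, PSI derived from sequencing read proportions per bin multiplied by bin number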
Kindly state protein stability index for each of the entries shown.
Numbers only.

Mutation Label	Property Name	Numeric Readout
L19E	protein stability index	2.31

Provide protein stability index values for the following items, in order.
1. T1A
2. E4Y

// result
2.22
1.68

# batch: return protein stability index for each of the 3 variants below
1. D9C
2. S24K
3. A13Q

// result
1. 1.62
2. 1.52
3. 1.76

Lab note: each variant below needs its protein stability index filled in.
1. L16E
2. D9R
3. F21Q
4. L22H
5. F21L
6. A14G
7. T1Q
8. L7H

// result
2.06
2.24
1.99
1.96
2.01
2.04
1.97
2.22

Hey, quick one: what's protein stability index for each of these?
1. A3Y
2. A14T
3. L16N
4. A13R
5. I5D

// result
[1.83, 1.8, 2.01, 1.73, 2.44]

Give protein stability index for each listed item.
1. D9N
2. V10D
3. S2R

// result
2
2.2
2.09
